- METHOD NOTES: Toxicity liver stage against HepG2, at 10uM
- Type: cell-based
- Set-up: test concentration 10 uM, cell line HepG2-A16-CD81EGFP
- SETUP CONDITIONS: human, HepG2-A16-CD81EGFP cells; read-out: INHIBITION
MEASURED ATTRIBUTE: cytotoxicity at 10 µM (%)
Return type: number; implicit unit %.

These recorded examples may help you get a feel for the data.
INSERT INTO assay_data (compound, output_unit, measured) VALUES
  ('c1cc(CNCC2CNc3ccnn3C2)cc(OC2CCCCC2)n1 (configuration not stated)', '%', -8.78),
  ('CN(C)[C@H]1COC[C@@H]2CN(Cc3ccc4c(c3)OCO4)C[C@@H]21', '%', 4.2),
  ('OCc1ccc(CN2CCC(n3cc(C4CCCCC4)nn3)CC2)o1', '%', 1.02),
  ('CC(c1nc(C2CC2)no1)N1CCN(CCc2ccncc2)CC1 (configuration not stated)', '%', -5.65),
  ('Cc1cnn(CC2CCCN2Cc2coc(-c3ccc(F)cc3)n2)c1 (configuration not stated)', '%', -0.953),
  ('NC(=O)COc1ccc(CNCc2cc(F)ccc2F)cc1', '%', 18.5),
  ('O=C(NCCC(O)c1ccco1)c1ccco1 (configuration not stated)', '%', 7.94),
  ('COCCNC(=O)CN(C)C(C)c1nc(C)no1 (configuration not stated)', '%', 0.668);

Reported cytotoxicity at 10 µM for CCOCC(=O)NCC1(NC(C)c2ccccc2)CCOCC1 (configuration not stated) : what is it?
-8.01

Consider the compound shown here: CC(C)(C)C(=O)CN1Cc2ccccc2NCCC1=O What is its recorded cytotoxicity at 10 µM?
-3.19

# cytotoxicity at 10 µM lookup, item Cc1noc(Cl)c1CCC(=O)N1CCN(CC(C)(C)O)CC1
1.61

What value of cytotoxicity at 10 µM has been recorded for this entry: COc1cccc(CN(C)C(C)C(=O)Nc2nc(C)c(C)s2)c1 (configuration not stated)
9.74

====

Listing of entries alongside the reported cytotoxicity at 10 µM.
- METHOD NOTES: Toxicity liver stage against HepG2, at 10uM
- Assay type: cell-based
- Parameters: test concentration 10 uM, cell line HepG2-A16-CD81EGFP
- SETUP CONDITIONS: human, HepG2-A16-CD81EGFP cells; read-out: INHIBITION
Only the number, expressed in %, is required.

Below are worked cases with known answers.
INSERT INTO measurements (compound, measured_attribute, measured) VALUES
  ('CNS(=O)(=O)c1ccc(CNC(=O)NCC2CCOC2)cc1 (stereo unspecified)', 'cytotoxicity at 10 µM', -2.65),
  ('Cc1nn(CCC#N)c(C)c1[C@@H]1C=C[C@@H](NCc2ccc(F)cc2)C1', 'cytotoxicity at 10 µM', 2),
  ('Cc1cc(O)n(-c2ccccc2Cl)c(=O)c1C#N', 'cytotoxicity at 10 µM', 2.96);

GET /values?readout=cytotoxicity at 10 µM&item= Cc1ccc(C(=O)N2CCN(CCC(C)(C)C)CC2)c(=O)[nH]1
-6.95

Need cytotoxicity at 10 µM of O=C1NCCN1C1CCN(c2ccnc(-c3ccccc3)n2)CC1 , thanks.
36.2

May I ask what cytotoxicity at 10 µM has been recorded for Cc1noc2nc(C3CCCN(Cc4cccnc4)C3)cc(C(F)F)c12 (stereo unspecified) ?
-30.3
